Test system: H3255
testProtocol: relative viability (nuclei count vs DMSO), 5 days (fraction); higher = more cells survive
testParameters: first compound 0.0002 µM
propertyLabel: relative viability
Keep it simple and answer with nothing but the number.

1) CC(=O)O[C@@]12CO[C@@H]1C[C@H](O)[C@@]1(C)C(=O)[C@H](O)C3=C(C)[C@@H](OC(=O)[C@H](O)[C@@H](NC(=O)OC(C)(C)C)c4ccccc4)C[C@@](O)([C@@H](OC(=O)c4ccccc4)[C@H]21)C3(C)C [Docetaxel] + N=C(N)NC(=N)NCCc1ccccc1 [Phenformin] (partner 250 µM)
0.353
2) CC(=O)O[C@@]12CO[C@@H]1C[C@H](O)[C@@]1(C)C(=O)[C@H](O)C3=C(C)[C@@H](OC(=O)[C@H](O)[C@@H](NC(=O)OC(C)(C)C)c4ccccc4)C[C@@](O)([C@@H](OC(=O)c4ccccc4)[C@H]21)C3(C)C [Docetaxel] + O=C(CCCCCCC(=O)Nc1ccccc1)NO [Vorinostat] (partner 1 µM)
0.785
3) CC(=O)O[C@@]12CO[C@@H]1C[C@H](O)[C@@]1(C)C(=O)[C@H](O)C3=C(C)[C@@H](OC(=O)[C@H](O)[C@@H](NC(=O)OC(C)(C)C)c4ccccc4)C[C@@](O)([C@@H](OC(=O)c4ccccc4)[C@H]21)C3(C)C [Docetaxel] + CC1(C)CCC(c2ccc(Cl)cc2)=C(CN2CCN(c3ccc(C(=O)NS(=O)(=O)c4ccc(N[C@H](CCN5CCOCC5)CSc5ccccc5)c(S(=O)(=O)C(F)(F)F)c4)cc3)CC2)C1 [Navitoclax] (partner 0.5 µM)
0.399
4) CC(=O)O[C@@]12CO[C@@H]1C[C@H](O)[C@@]1(C)C(=O)[C@H](O)C3=C(C)[C@@H](OC(=O)[C@H](O)[C@@H](NC(=O)OC(C)(C)C)c4ccccc4)C[C@@](O)([C@@H](OC(=O)c4ccccc4)[C@H]21)C3(C)C [Docetaxel] + Cc1cc(Nc2cc(N3CCN(C)CC3)nc(Sc3ccc(NC(=O)C4CC4)cc3)n2)n[nH]1 [Tozasertib] (partner 0.1 µM)
0.83
5) CC(=O)O[C@@]12CO[C@@H]1C[C@H](O)[C@@]1(C)C(=O)[C@H](O)C3=C(C)[C@@H](OC(=O)[C@H](O)[C@@H](NC(=O)OC(C)(C)C)c4ccccc4)C[C@@](O)([C@@H](OC(=O)c4ccccc4)[C@H]21)C3(C)C [Docetaxel] + C[C@@H](Oc1cc(-c2cnn(C3CCNCC3)c2)cnc1N)c1c(Cl)ccc(F)c1Cl [Crizotinib] (partner 1 µM)
0.654

# input Please report the recorded relative viability for CC(=O)O[C@@]12CO[C@@H]1C[C@H](O)[C@@]1(C)C(=O)[C@H](O)C3=C(C)[C@@H](OC(=O)[C@H](O)[C@@H](NC(=O)OC(C)(C)C)c4ccccc4)C[C@@](O)([C@@H](OC(=O)c4ccccc4)[C@H]21)C3(C)C [Docetaxel] + COc1cccc2cc(-c3nc([C@H]4CC[C@H](C(=O)O)CC4)n4ncnc(N)c34)[nH]c12 [OSI-027] (partner 0.5 µM) .
# output 0.66

# input Please report the recorded relative viability for CC(=O)O[C@@]12CO[C@@H]1C[C@H](O)[C@@]1(C)C(=O)[C@H](O)C3=C(C)[C@@H](OC(=O)[C@H](O)[C@@H](NC(=O)OC(C)(C)C)c4ccccc4)C[C@@](O)([C@@H](OC(=O)c4ccccc4)[C@H]21)C3(C)C [Docetaxel] + CS(=O)(=O)N1CCN(Cc2cc3nc(-c4cccc5[nH]ncc45)nc(N4CCOCC4)c3s2)CC1 [Pictilisib] (partner 1 µM) .
# output 0.395

# input Please report the recorded relative viability for CC(=O)O[C@@]12CO[C@@H]1C[C@H](O)[C@@]1(C)C(=O)[C@H](O)C3=C(C)[C@@H](OC(=O)[C@H](O)[C@@H](NC(=O)OC(C)(C)C)c4ccccc4)C[C@@](O)([C@@H](OC(=O)c4ccccc4)[C@H]21)C3(C)C [Docetaxel] + CCNC(=O)c1noc(-c2cc(C(C)C)c(O)cc2O)c1-c1ccc(CN2CCOCC2)cc1 [Luminespib] (partner 0.01 µM) .
# output 0.907
